# Target: UniProt P21917
# Sequence (P21917 whole entry): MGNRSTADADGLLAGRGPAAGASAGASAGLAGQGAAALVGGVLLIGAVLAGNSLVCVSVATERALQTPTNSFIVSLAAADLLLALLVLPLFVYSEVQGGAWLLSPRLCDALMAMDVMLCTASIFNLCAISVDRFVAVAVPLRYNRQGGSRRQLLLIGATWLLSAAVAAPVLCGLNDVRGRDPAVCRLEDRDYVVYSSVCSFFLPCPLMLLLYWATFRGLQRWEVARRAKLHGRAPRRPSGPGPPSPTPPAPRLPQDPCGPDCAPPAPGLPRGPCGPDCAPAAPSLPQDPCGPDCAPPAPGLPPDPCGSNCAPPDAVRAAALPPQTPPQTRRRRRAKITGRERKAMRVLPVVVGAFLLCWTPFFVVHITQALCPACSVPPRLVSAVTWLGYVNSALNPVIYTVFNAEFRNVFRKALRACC
# Assay procedure: Binding affinity towards Chinese hamster ovary cells transfected with human D4 receptor using [3H]spiperone
# Type: cell-based
Recorded metric: Ki

Item under review: COc1ccccc1N1CCN(CCCCNC(=O)c2ccc(Br)cc2)CC1 . Reported Ki? 50.1 nM

----------
The listing below reports Ki for compounds tested on D(3) dopamine receptor (Homo sapiens, UniProt P35462).
Sequence (P35462 whole entry): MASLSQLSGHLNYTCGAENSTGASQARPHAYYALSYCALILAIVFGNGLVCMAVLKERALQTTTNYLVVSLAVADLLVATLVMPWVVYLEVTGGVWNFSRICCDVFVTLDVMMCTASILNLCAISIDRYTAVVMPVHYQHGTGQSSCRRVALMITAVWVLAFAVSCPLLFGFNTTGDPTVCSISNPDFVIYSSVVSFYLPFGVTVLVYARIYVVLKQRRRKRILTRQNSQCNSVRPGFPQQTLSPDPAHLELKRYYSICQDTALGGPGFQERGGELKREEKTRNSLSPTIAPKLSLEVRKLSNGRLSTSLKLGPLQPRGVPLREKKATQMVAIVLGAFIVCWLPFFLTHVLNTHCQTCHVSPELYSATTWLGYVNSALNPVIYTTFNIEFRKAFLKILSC
Write the answer as a number in nM, unit excluded.

Some entries whose results are on file:
>  <Compound smiles>
COc1ccccc1N1CCN(CCCCNC(=O)c2ccc(Br)cc2)CC1

>  <Recorded metric>
Ki

>  <Numeric result>
0.501

$$$$
>  <Compound smiles>
COc1ccccc1N1CCN(CCCCNC(=O)c2ccc(-c3ccc(C(C)=O)cc3)cc2)CC1

>  <Recorded metric>
Ki

>  <Numeric result>
0.316

$$$$
>  <Compound smiles>
O=C(NCCCCN1CCN(c2ccccc2)CC1)c1ccc(Br)cc1

>  <Recorded metric>
Ki

>  <Numeric result>
6.31

$$$$
>  <Compound smiles>
COc1ccccc1N1CCN(CCCCNC(=O)c2ccc(-c3ccc(S(C)(=O)=O)cc3)cc2)CC1

>  <Recorded metric>
Ki

>  <Numeric result>
0.316

$$$$

API: the following record is the query input.
Under D(3) dopamine receptor (Homo sapiens, UniProt P35462): Ki value of COc1ccccc1N1CCN(CCCCNC(=O)c2ccc(-c3ccc(N)cc3)cc2)CC1 ? 0.2
